The reported numbers originate from the supplement of paper PMC9170038.

Tested on: MS2 coat protein
Assay: apparent KD of MS2 coat protein; designed switch direction (-1 OFF switch, 1 ON switch): -1; higher = weaker reporter binding
Details: Eterna round: R95; input ligand: microRNA oligo, concentration not stated
Decision: apparent KD of MS2 coat protein >= 30 nM yields Criterion met, all other cases yield Criterion not met.

Example entries and their recorded answers appear below.
sequencerecord="AAAUCCGCUGAGGAUAUUAUGACUGAGAGGUCAUGAGAAGGCGGUACAUGAGGAUCACCCAUGUCUAUGGGCAA [Ex-6 Malc#27] (puzzle: Exclusion 6)" assignedclass="Criterion met"
sequencerecord="GUACGCUCAGGAUAUCAAGGGCUGUACAUGAGGAUCACCCAUGUUAUCUUGGUGUCAGCGUGAGAAGGGAGGGAAA [Xesoonesa] (puzzle: Exclusion 5)" assignedclass="Criterion not met"
sequencerecord="GUGUACGGAGGAUAUAUAUGGGCAGGCUGACCUGCAGCUUCACAUGAGGAUCACCCAUGUAGAAGGCUGUGCAC [JL-ex2-2.07 Brourd mod] (puzzle: Exclusion 2)" assignedclass="Criterion not met"
sequencerecord="AAUACAAGCAAGAUCCUAAACAUGAGGAUCACCCAUGUGCUCGUCUUGUAAAGUACUAUCACGAAAGUGAUAGUACA [Sensor 3, v1 - 62] (puzzle: Sensor v3, turn-off variant 1)" assignedclass="Criterion met"
sequencerecord="CUUUUGUGAGGAUAUCAUUAGUAAAUAAAUAAAAUUACUACUGAGAAGGCACAUGAGGAUCACCCAUGUUCCUC [salish99_ex3_r3_072] (puzzle: Exclusion 4)" assignedclass="Criterion met"
sequencerecord="GGCAUAAUGUAGGAUAUCGUAUUGGAAACAAUACGAGAAGGGCAAACAUGAGGAUCACCCAUGUUCCUUAAGCC [Mat - Exclusion 6 - Eli Mod - D71] (puzzle: Exclusion 6)" assignedclass="Criterion not met"
sequencerecord="UAUUAGUGAGGAUAUGGUAAAGAUAAGAUGAUGAAAGAACUCCAGAAGGCACAUGAGGAUCACCCAUGUAGUAG [JL-ex4-2.09 Jieux mod] (puzzle: Exclusion 4)" assignedclass="Criterion not met"
sequencerecord="UAUACACAUGAGGAUCACCCAUGUGAGGAUAUGUACAACAACCCGACGGUGUUGUUGUACAGAAGGCACAAAUA [JR_Exclusion1_Sub027] (puzzle: Exclusion 1)" assignedclass="Criterion met"
sequencerecord="CGGUGCUGAGGAUAUACAUGAGGAUCACCCAUGUGUUCCAGCUAGCGUACUGGCGGAUGUAGAAGGCGGUACUG [JL-ex3-3.40 Brourd mod] (puzzle: Exclusion 3)" assignedclass="Criterion not met"
sequencerecord="GGCAUAAUGUAGGAUAUCGUAAUGGAAACAUUACGAGAAGGGCAAACAUGAGGAUCACCCAUGUUCCUUAAGCC [Mat - Exclusion 6 - Eli Mod - D70] (puzzle: Exclusion 6)" assignedclass="Criterion not met"

query: Is apparent KD of MS2 coat protein for CCUCUACAUGAGGAUCACCCAUGUGAGGAUAUCUCGGAGCAGCCUAUUAAGGCGCUCCAGAGAAGGCACGUGUA [Dizasoorce] (puzzle: Exclusion 1) at or above 30 nM?
result: Criterion not met

* * *

Test system: MS2 coat protein
Assay: apparent KD of MS2 coat protein, switch OFF state (with FMN for OFF switches, without FMN for ON switches); designed switch direction (-1 OFF switch, 1 ON switch): 1; higher = weaker reporter binding
Settings: FMN input: 0 or 200 uM; Eterna round: R93 (includes R88 designs)
Decide by apparent KD of MS2 coat protein: equal to or exceeding 40 nM means condition met, less means condition not met.

These solved cases illustrate the format of a correct answer.
sequencerecord="AAAUAAAUGACUCAGGAUAUAUCAUAGAGUACAUGAGGAUCACCCAUGUUUUAAUAACAUGUUUGGUAGAAGGGAGUCAAUAAAU [LROPPY Same State 2 - v06_deltaG=1.99]" targetsystem="MS2 coat protein" assignedclass="condition met"
sequencerecord="AGAAUAAAAACAGAGGAUAUCCAAAAGAAAACAUGAGGAUCACCCAUGUAAAAGAAAAUAAAAUGGGAGAAGGCUGAAAUAAAGA [Mat - Same State 2 - Eli mod - D97]" targetsystem="MS2 coat protein" assignedclass="condition not met"
sequencerecord="AAAUAAAUGACUAAGGAUAUAUCGGAGAAAACAUGAGGAUCACCCAUGUAAUAAUAAAAAGGGUGAUAGAAGGUAGUCAACAAAC [Mod 1 of Pariah 4 by Hyphema in Round 1]" targetsystem="MS2 coat protein" assignedclass="condition met"
sequencerecord="AAAAGGGCGACACAGGAUAUGUUGACUCUAACAUGAGGAUCACCCAUGUGCGUUUAGGGUCGUGCGCAGAAGGGUGUAGCUCGGA [Orvele]" targetsystem="MS2 coat protein" assignedclass="condition not met"

query: Is reported apparent KD of MS2 coat protein greater than or equal to 40 nM here: AGAAAUAAAAGCUAGGAUAUCCAAAAGAAAACAUGAGGAUCACCCAUGUGAAAGAAAAUAAAAUGGGAGAAGGAGCAAAAUAAGA [Topaz 51]
result: condition not met

query: State whether the measured apparent KD of MS2 coat protein reaches 40 nM, counting equality as reaching it, for CUUAGACAUGAGGAUCACCCAUGUCGAACAAACAAAGGAUAUGGGAGCCGAAGAAGGCUAUUAGAAGGUUGCAAAA [Isesinbe]
result: condition not met

query: Please check the record AAUAUACAUGAGGAUCACCCAUGUUUUAAUAACUGAGGAUAUACGGGUGAAAACAGCAUAGUAGAAGGCAGAUAUA [SameState1 Malc#6] and state if its apparent KD of MS2 coat protein is at or above 40 nM.
result: condition met

query: State whether the measured apparent KD of MS2 coat protein reaches 40 nM, counting equality as reaching it, for AAAAAGGAGAGAGAGGAUAUCCAAAGGAAAACAUGAGGAUCACCCAUGUAAAAGGUAGGAAAUUGGGAGAAGGCUCAAGAGAGAG [salish99-ss2-107]
result: condition not met

query: Confirm if apparent KD of MS2 coat protein reported for the sequence AAUAUAUUAUUUAAGGAUAUCAUAGGAAACACAUGAGGAUCACCCAUGUGGGAAACCUGGUCGGGUGAGAAGGUGGAUAAUAUAU [Samwise Clockwise 35 - Jieux - Same State 2] is 40 nM or above.
result: condition not met

query: Please tell me: is the sequence CGGAGACAUGAGGAUCACCCAUGUGAGAAGAGGCGAGGAUAUCGAAAGAAAGAAGAGAAACGAGAAGGCGCGAGCC [salish99-SS1-080(!)] at or over 40 nM in terms of apparent KD of MS2 coat protein?
result: condition not met

query: hey, is apparent KD of MS2 coat protein for this one >= 40 nM? AACAUACAUGAGGAUCACCCAUGUUCCGGCAGGUCAGGAUAUGUAUCGAAAGAGUUAUAAACAGAAGGGACAUAAA [JR_SS001_Sub010]
result: condition met

query: Is the recorded value of apparent KD of MS2 coat protein equal to or greater than 40 nM for this sequence? AAUAUACAUGAGGAUCACCCAUGUUAGGUGGGACUAGGAUAUCAAAAUACAUAAUGAACAUGAGAAGGAGUAUCAA [JR_SS001_Sub403]
result: condition met

query: Assess whether reported apparent KD of MS2 coat protein for GGAGCUCCAGCGCAGGAUAUCGACCCAGGGACAUGAGGAUCACCCAUGUUCCAAAAAAAAUGGGUCGAGAAGGGCGUUGGAGAGCC [SAmeState2-III] sits at 40 nM or higher.
result: condition not met

* * *

Tested on: MS2 coat protein
Assay: apparent KD of MS2 coat protein; designed switch direction (-1 OFF switch, 1 ON switch): -1; higher = weaker reporter binding
Conditions: input ligand: microRNA oligo, concentration not stated
Parameter: apparent KD of MS2 coat protein. Scope: all listed entries.
// note: answer is a bare numeric in nM

sequencerecord="GAUCCACAUGAGGAUCACCCAUGUGAGGAUAUGAUACUAUGUACUUCGGUACAUAGUAUCAGAAGGCAUAUGAA [Ex1-3: 47] (Eterna round: R96, puzzle: Exclusion 1)" measuredendpoint="apparent KD of MS2 coat protein" unitsymbol=nM endpointresult=33.2
sequencerecord="AACUAGUCAGGAUAUACGAACAUGUCAAAAAACAUGAAGGGACAUGAGGAUCACCCAUGUAGAAGGGACUAGCA [74%, Web mod - With 3 less G's] (Eterna round: R96, puzzle: Exclusion 2)" measuredendpoint="apparent KD of MS2 coat protein" unitsymbol=nM endpointresult=29.3
sequencerecord="UAACCCGCGCGAGGAUAUCACAUGAGGAUCACCCAUGUGGCACUCCGUCACCGGGCAGUCCCGAGUGAGAAGGUGCAGGCGGGA [Bireisen] (Eterna round: R96, puzzle: Exclusion NG 2)" measuredendpoint="apparent KD of MS2 coat protein" unitsymbol=nM endpointresult=22.1
sequencerecord="CUGAUGUUAGGAUAUCAGGUCACGCGCGAAGGCGCGCGGCAUGAGAAGGAACAUGAGGAUCACCCAUGUGACGA [Reisquso] (Eterna round: R96, puzzle: Exclusion 4)" measuredendpoint="apparent KD of MS2 coat protein" unitsymbol=nM endpointresult=29.6
sequencerecord="GCUUGUGGGCAAGGAUAUCCUGCGCUGUUCUGGUUCGUGUCUGUCACAUGAGGAUCACCCAUGUGGGAGAAGGUGCCUUUGGUG [Design 64] (Eterna round: R96, puzzle: Exclusion NG 2)" measuredendpoint="apparent KD of MS2 coat protein" unitsymbol=nM endpointresult=10.9
sequencerecord="AACUGUGAGGCAGGAUAUGAAGCAUGGGCCGCGUGAUAAUACAUGAGGAUCACCCAUGUAGGGAUUCAGAAGGGCCCAGAGCAC [Atusveer] (Eterna round: R96, puzzle: Exclusion NG 2)" measuredendpoint="apparent KD of MS2 coat protein" unitsymbol=nM endpointresult=11.5
sequencerecord="UUCGUGCAGCUUUGCUGUACGCGUACAUGAGGAUCACCCAUGUAGGAUAUGGUACGCUUUGCGUGCUAGAAGGAUAUGUGGAGG [JL EXNG3 1.35] (Eterna round: R96, puzzle: Exclusion NG 3)" measuredendpoint="apparent KD of MS2 coat protein" unitsymbol=nM endpointresult=33.6
sequencerecord="GUUGACUGAUGAGGAUAUUCAUAAGAAUGGGCCUUGGUUUUACAUGAGGAUCACCCAUGUUGACAGAAGAAGGCAUCAGUCUGA [Eternabot solution 28] (Eterna round: R96, puzzle: Exclusion NG 2)" measuredendpoint="apparent KD of MS2 coat protein" unitsymbol=nM endpointresult=120
sequencerecord="UUUCAUCAUGUAGGAUAUGCGUGGCGAAGCUAUGCAGAAGGACAUGAGGAUCACCCAUGUUCUAGCGUCUGCGUACAGAUGCUA [JL ENG1 1.35] (Eterna round: R96, puzzle: Exclusion NG 1)" measuredendpoint="apparent KD of MS2 coat protein" unitsymbol=nM endpointresult=45.1
sequencerecord="GCGUUUUGGUGAGGAUAUCGGCCCGAAACCGGGCAACAUGAGGAUCACCCAUGUACGUGAUCCUGCGAGAAGGCACCGAUUAUA [Bedi] (Eterna round: R96, puzzle: Exclusion NG 2)" measuredendpoint="apparent KD of MS2 coat protein" unitsymbol=nM endpointresult=60.7

query: Field request: apparent KD of MS2 coat protein | item: ACAUGAGGAUCACCCAUGUCAGGCGGGUCCUCUCCGGCUGUUGAGGAUAUAGUCCGGUAUCCGCGCUAGAAGGUGAGGGCCGGC [Aenatbe mod 18] (Eterna round: R96, puzzle: Exclusion NG 3)
result: 16.4

query: Please report the recorded apparent KD of MS2 coat protein for AACCUCGUAGCAGGAUAUUAGAGCUCCCGCAAAUGAGAAGGGCUACGAAACACUUGAGGAUCACCCAAGUACCGUGGUCCUCUA [Mutated MS2 EX1.8] (Eterna round: R96, puzzle: Exclusion NG 1) .
result: 17.6

query: Can you look up the measured apparent KD of MS2 coat protein of GCUCGUGGGCAAGGAUAUCCUACGCUGUUCUGGUUCGUGUCUGUCACAUGAGGAUCACCCAUGUGGGAGAAGGUGCAUUUGGGU [Design 56] (Eterna round: R96, puzzle: Exclusion NG 2) for me?
result: 15.9
